target: KPC-2 (Klebsiella pneumoniae, UniProt Q9F663); assay: β-lactamase enzyme inhibition, KPC-2; conditions: substrate imipenem, 300 nm; read-out: Class A KPC-2 IC50
Please go through the items and note down their IC50.

Item under review: N[C@@H](C(=O)N[C@H]1Cc2cccc(C(=O)O)c2OB1O)C1CCCCC1 . Reported IC50? < 0.1 µM

Please do the same for NC[C@H]1CC[C@H](C(=O)N[C@H]2Cc3cccc(C(=O)O)c3OB2O)CC1 as well. 0.1 to 1 µM

Next molecule up: CNCCN[C@H]1CC[C@H](C(CO)C(=O)N[C@H]2Cc3cccc(C(=O)O)c3OB2O)CC1 (some centres unmarked) 0.1 to 1 µM

Please do the same for CN(C)CCN(C)[C@H]1CC[C@H](CC(=O)N[C@H]2Cc3cccc(C(=O)O)c3OB2O)CC1 as well. < 0.1 µM

// repeat for CCNCCN[C@H]1CC[C@H](CC(=O)N[C@H]2Cc3cccc(C(=O)O)c3OB2O)CC1 and report < 0.1 µM

Next record, please: NCC(=O)N[C@H]1CC[C@H](CC(=O)N[C@H]2Cc3cccc(C(=O)O)c3OB2O)CC1 < 0.1 µM

Cool, now O=C(CC1CCC(NC2CNC2)CC1)N[C@H]1Cc2cccc(C(=O)O)c2OB1O (some centres unmarked) < 0.1 µM

Now the molecule O=C(C[C@H]1CC[C@H](NCCNc2ccccn2)CC1)N[C@H]1Cc2cccc(C(=O)O)c2OB1O < 0.1 µM
